# System: T1, Recombinant human bFGF (human, UniProt P09038 143-288, limits assumed)
# T1 construct: Bought (Sigma); also called hFGF-2; human basic fibroblast growth factor
# T1 sequence (P09038 143-288 limits assumed): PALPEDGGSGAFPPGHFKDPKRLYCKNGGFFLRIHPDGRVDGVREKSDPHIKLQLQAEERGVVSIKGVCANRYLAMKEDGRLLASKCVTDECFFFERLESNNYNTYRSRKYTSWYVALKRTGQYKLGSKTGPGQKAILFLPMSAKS
# Measurement protocol: ELISA, coated human bFGF
Quantity: pEC50
To interpret pEC50, take it as minus log10 of a concentration measured in moles per litre.

Check out these entries, answers already filled in.
{"Binder": "Nb-FV1 (bispecific antibody, Bispecific tandem VHH (bFGF and VEGF); with c-myc and histidine tag) QVQLVESGGGLVQPGGSLRLSCAASGTEDGRLLTLGGSWFRQAPGQGLEAVAAIGAGDRGGATYYADSVKGRFTISRDNSKNTLYLQMNSLRAEDTAVYYCTALYERQPQLAATKVARKWGQGTLVTVSSAHHSEDPSSKAPKAPAQVQLVESGGGLVQPGGSLRLSCAASGNSAEDRLYNSYTWFRQAPGQGLEAVAAISSHFSAGLTYYADSVKGRFTISRDNSKNTLYLQMNSLRAEDTAVYYCEITSHASHNDAWSTPRTVWGQGTLVTVSSAAAGSEQKLISEEDLNSHHHHHH", "pEC50": 7.94}
{"Binder": "Nb-VF3 (bispecific antibody, Bispecific tandem VHH (VEGF and bFGF); with c-myc and histidine tag) QVQLVESGGGLVQPGGSLRLSCAASGNSAEDRLYNSYTWFRQAPGQGLEAVAAISSHFSAGLTYYADSVKGRFTISRDNSKNTLYLQMNSLRAEDTAVYYCEITSHASHNDAWSTPRTVWGQGTLVTVSSAHHSEDPSSKAPKAPAQVQLVESGGGLVQPGGSLRLSCAASGTEDGRLLTLGGSWFRQAPGQGLEAVAAIGAGDRGGATYYADSVKGRFTISRDNSKNTLYLQMNSLRAEDTAVYYCTALYERQPQLAATKVARKWGQGTLVTVSSAAAGSEQKLISEEDLNSHHHHHH", "pEC50": 7.95}
{"Binder": "Nb-F3 (VHH, carries the C-terminal c-myc tracer peptide and histidine tag; also called VHH Nb-F3) VHH: QVQLVESGGGLVQPGGSLRLSCAASGTEDGRLLTLGGSWFRQAPGQGLEAVAAIGAGDRGGATYYADSVKGRFTISRDNSKNTLYLQMNSLRAEDTAVYYCTALYERQPQLAATKVARKWGQGTLVTVSS", "pEC50": 7.95}

Asked: For Nb-FF2 (VHH, Bivalent monospecific tandem VHH for bFGF; with c-myc and histidine tag) QVQLVESGGGLVQPGGSLRLSCAASGTEDGRLLTLGGSWFRQAPGQGLEAVAAIGAGDRGGATYYADSVKGRFTISRDNSKNTLYLQMNSLRAEDTAVYYCTALYERQPQLAATKVARKWGQGTLVTVSSAHHSEDPSSKAPKAPAQVQLVESGGGLVQPGGSLRLSCAASGTEDGRLLTLGGSWFRQAPGQGLEAVAAIGAGDRGGATYYADSVKGRFTISRDNSKNTLYLQMNSLRAEDTAVYYCTALYERQPQLAATKVARKWGQGTLVTVSSAAAGSEQKLISEEDLNSHHHHHH , what is its reported pEC50?
Given back: 8.23
